Would you kindly list IC50 for each of these molecules?
Biological target: Somatostatin receptor type 3 (Homo sapiens)
Sequence (P32745 whole entry): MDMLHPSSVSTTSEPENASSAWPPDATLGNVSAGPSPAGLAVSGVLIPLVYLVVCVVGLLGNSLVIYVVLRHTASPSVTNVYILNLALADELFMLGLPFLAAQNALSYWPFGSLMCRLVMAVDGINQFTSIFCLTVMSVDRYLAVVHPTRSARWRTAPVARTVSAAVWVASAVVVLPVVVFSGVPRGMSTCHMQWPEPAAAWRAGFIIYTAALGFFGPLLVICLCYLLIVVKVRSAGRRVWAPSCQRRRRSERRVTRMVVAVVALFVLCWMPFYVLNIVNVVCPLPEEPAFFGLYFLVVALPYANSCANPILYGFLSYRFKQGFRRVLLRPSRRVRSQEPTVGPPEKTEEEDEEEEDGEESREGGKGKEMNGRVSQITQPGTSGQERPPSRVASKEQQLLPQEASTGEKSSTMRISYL
Test: Displacement of 125I-[LTT]-SRIF-28 from human sst3 receptor in CCL39 cells after 2 hrs by autoradiography

Lab note: C[C@H](N)C(=O)NCC(=O)N[C@H]1CSSC[C@@H](C(=O)O)NC(=O)[C@H](CO)NC(=O)[C@H]([C@@H](C)O)NC(=O)[C@H](Cc2ccccc2)NC(=O)[C@H]([C@@H](C)O)NC(=O)[C@H](CCCCN)NC(=O)[C@H](Cc2ccc3ccccc3c2)NC(=O)[C@H](Cc2ccccc2)NC(=O)[C@H](Cc2ccccc2)NC(=O)[C@H](CC(N)=O)NC(=O)[C@H](CCCCN)NC1=O gave IC50 of 1.5 nM

Lab note: C[C@H](N)C(=O)NCC(=O)N[C@H]1CSSC[C@@H](C(=O)O)NC(=O)[C@H](CO)NC(=O)[C@H]([C@@H](C)O)NC(=O)[C@H](Cc2ccccc2)NC(=O)[C@H]([C@@H](C)O)NC(=O)[C@H](CCCCN)NC(=O)[C@@H](Cc2ccc(O)cc2)NC(=O)[C@H](Cc2ccccc2)NC(=O)[C@H](Cc2ccccc2)NC(=O)[C@H](CC(N)=O)NC(=O)[C@H](CCCCN)NC1=O gave IC50 of 2 nM

* * *

Target: Somatostatin receptor type 5 (Homo sapiens, UniProt P35346)
Sequence (P35346 whole entry): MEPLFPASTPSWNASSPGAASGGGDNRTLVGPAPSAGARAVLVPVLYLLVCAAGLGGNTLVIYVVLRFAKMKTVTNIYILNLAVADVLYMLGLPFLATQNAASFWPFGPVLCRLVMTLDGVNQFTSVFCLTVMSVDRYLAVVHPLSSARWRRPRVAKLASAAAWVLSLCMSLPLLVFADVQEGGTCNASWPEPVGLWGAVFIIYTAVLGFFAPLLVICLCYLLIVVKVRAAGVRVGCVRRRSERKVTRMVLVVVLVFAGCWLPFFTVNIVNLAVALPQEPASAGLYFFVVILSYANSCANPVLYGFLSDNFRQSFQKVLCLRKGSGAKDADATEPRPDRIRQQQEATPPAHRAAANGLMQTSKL
Assay: Displacement of 125I-[LTT]-SRIF-28 from human sst5 receptor in HEK293 cells after 2 hrs by autoradiography
measurement-type: IC50 (nM)
The response must be a number in nM with no trailing unit.

Lab note: C[C@H](N)C(=O)NCC(=O)N[C@H]1CSSC[C@@H](C(=O)O)NC(=O)[C@H](CO)NC(=O)[C@H]([C@@H](C)O)NC(=O)[C@H](Cc2ccccc2)NC(=O)[C@H]([C@@H](C)O)NC(=O)[C@H](CCCCN)NC(=O)[C@H](Cc2ccc(O)cc2)NC(=O)[C@H](Cc2ccccc2)NC(=O)[C@H](Cc2ccccc2)NC(=O)[C@H](CC(N)=O)NC(=O)[C@H](CCCCN)NC1=O gave IC50 of 556

* * *

Biological target: Somatostatin receptor type 3 (Homo sapiens)
Test: Agonist activity at human sst3 receptor expressed in CCL39 cells after 5 hrs by luciferase reporter gene assay
Format: functional, cell-based
measurement-type: pEC50
Answer as the number alone; pEC50 is minus log10 of concentration in mol/L.

Lab note: C[C@H](N)C(=O)NCC(=O)N[C@H]1CSSC[C@@H](C(=O)O)NC(=O)[C@H](CO)NC(=O)[C@H]([C@@H](C)O)NC(=O)[C@H](Cc2ccccc2)NC(=O)[C@H]([C@@H](C)O)NC(=O)[C@H](CCCCN)NC(=O)[C@H](Cc2ccc3ccccc3c2)NC(=O)[C@H](Cc2ccccc2)NC(=O)[C@H](Cc2ccccc2)NC(=O)[C@H](CC(N)=O)NC(=O)[C@H](CCCCN)NC1=O gave pEC50 of 9.46

Lab note: C[C@H](N)C(=O)NCC(=O)N[C@H]1CSSC[C@@H](C(=O)O)NC(=O)[C@H](CO)NC(=O)[C@H]([C@@H](C)O)NC(=O)[C@H](Cc2ccccc2)NC(=O)[C@H]([C@@H](C)O)NC(=O)[C@H](CCCCN)NC(=O)[C@@H](Cc2ccc3ccccc3c2)NC(=O)[C@H](Cc2ccccc2)NC(=O)[C@H](Cc2ccccc2)NC(=O)[C@H](CC(N)=O)NC(=O)[C@H](CCCCN)NC1=O gave pEC50 of 9.64

Lab note: C[C@H](N)C(=O)NCC(=O)N[C@H]1CSSC[C@@H](C(=O)O)NC(=O)[C@H](CO)NC(=O)[C@H]([C@@H](C)O)NC(=O)[C@H](Cc2ccccc2)NC(=O)[C@H]([C@@H](C)O)NC(=O)[C@H](CCCCN)NC(=O)[C@H](Cc2ccc(O)cc2)NC(=O)[C@H](Cc2ccccc2)NC(=O)[C@H](Cc2ccccc2)NC(=O)[C@H](CC(N)=O)NC(=O)[C@H](CCCCN)NC1=O gave pEC50 of 7.80

Origin of the recorded values: ChEMBL document CHEMBL1821599
